Biological target: HLA-A*31:01
Assay: IEDB peptide-MHC binding, purified MHC/competitive/radioactivity; filed as Kd, often an IC50 or EC50 that approximates it; bounds were set here for any values at or beyond the usual limits of such assays
Conditions: source organism: Mammarenavirus guanaritoense
property.measured: Kd (nM)
Write the number in nM without appending the unit.

Request: Field request: Kd | item: `DWTDGSRGYR`
Result: 918

====

Target: HLA-A*02:01
Test: IEDB peptide-MHC binding, purified MHC/competitive/radioactivity; bounds were set here for any values at or beyond the usual limits of such assays
Details: source organism: Mycobacterium tuberculosis H37Ra
property.measured: IC50 (nM)
Write the number in nM without appending the unit.

Request: Field request: IC50 | item: `GLIDIAPHQISS`
Result: 173

====

Target: HLA-A*26:01
Assay: IEDB peptide-MHC binding, purified MHC/competitive/fluorescence; filed as Kd, often an IC50 or EC50 that approximates it; bounds were set here for any values at or beyond the usual limits of such assays
Conditions: source organism: Escherichia coli O157:H7 str. Sakai
property.measured: Kd

Request: Field request: Kd | item: `HQIWLALRY`
Result: ≥ 20 µM

====

Biological target: HLA-B*51:01
Experiment: IEDB peptide-MHC binding, purified MHC/competitive/fluorescence; filed as Kd, often an IC50 or EC50 that approximates it; bounds were set here for any values at or beyond the usual limits of such assays
Conditions: source organism: Campylobacter jejuni subsp. jejuni NCTC 11168 = ATCC 700819
pKd: −log10 of the molar value.
property.measured: pKd

Request: Query the reported pKd for HLA-B*51:01; item: `LSILPFFIV`
Result: ≤ 4.70

====

Molecular target: HLA-B*46:01
Assay: IEDB peptide-MHC binding, purified MHC/competitive/fluorescence; filed as Kd, often an IC50 or EC50 that approximates it; bounds were set here for any values at or beyond the usual limits of such assays
Conditions: source organism: Escherichia coli O157:H7 str. Sakai
pKd: −log10 of the molar value.
property.measured: pKd

Request: Query the reported pKd for HLA-B*46:01; item: `HQIWLALRY`
Result: ≤ 4.70

====

Molecular target: HLA-B*48:01
Experiment: IEDB peptide-MHC binding, purified MHC/direct/fluorescence; filed as Kd, often an IC50 or EC50 that approximates it; bounds were set here for any values at or beyond the usual limits of such assays
Conditions: source organism: Reston ebolavirus - Reston
pKd: −log10 of the molar value.
property.measured: pKd

Request: Field request: pKd | item: `KHDFIDNPL`
Result: ≤ 4.70

====

Target: HLA-B*46:01
Experiment: IEDB peptide-MHC binding, purified MHC/direct/fluorescence; filed as Kd, often an IC50 or EC50 that approximates it; bounds were set here for any values at or beyond the usual limits of such assays
Settings: source organism: Brucella suis 1330
property.measured: Kd

Request: Field request: Kd | item: `MHCDFAFWV`
Result: ≥ 20 µM

====

Target: HLA-A*69:01
Assay: IEDB peptide-MHC binding, purified MHC/competitive/fluorescence; filed as Kd, often an IC50 or EC50 that approximates it; bounds were set here for any values at or beyond the usual limits of such assays
Settings: source organism: Mycobacterium tuberculosis variant bovis BCG str. Pasteur 1173P2
property.measured: pKd
pKd field: float, defined as -log10 of concentration (mol/L).

Request: Field request: pKd | item: `YLAEGHACL`
Result: 6.42
